- TEST SYSTEM: 5α-reductase
- TEST DESCRIPTION: 5α-reductase inhibitory activity in vitro
- ASSAY SETUP: male rats' prostate enzyme, [4-C14]-testosterone, NADPH, 60 mins at 37° C., pH 7.4
MEASURED ATTRIBUTE: IC50 (nM)
One number for each entry, in nM.

Count: 5. Required value per item: IC50.
1. Cc1cccc(COc2ccc(C(=O)Nc3ccccc3OCCCC(=O)O)c(C)c2C)c1 [2(c)]
2. Cc1ccc(COc2ccc(C(=O)Nc3ccccc3OCCCC(=O)O)c(C)c2C)cc1 [2(d)]
3. Cc1c(OCCCc2ccccc2)ccc(C(=O)Nc2ccccc2OCCCC(=O)O)c1C [2(l)]
4. Cc1cccc(C)c1COc1ccc(C(=O)Nc2ccccc2OCCCC(=O)O)c(C)c1C [2(e)]
5. Cc1c(OCCCCc2ccccc2)ccc(C(=O)Nc2ccccc2OCCCC(=O)O)c1C [2(m)]

1: 1300; 2: 980; 3: 1000; 4: 1400; 5: 750
